Where these numbers come from: patent EP4711361A1

- protocol-notes: Permeability test (MDR1-MDCKII monolayer, bidirectional transport)
- Format: in vitro ADME
- experimental-context: dog, MDCK-MDR1, pH 7.4, ER = Papp (BA)/ Papp (AB)
measure: efflux ratio at 2.5 h, 2 µM
# print the numeric value only

Worked examples follow.
[
  {
    "compound": "CCC(=O)NC1CCCc2c(-c3cc(F)c4c(ccc(=O)n4C)c3)cncc21 (single isomer, unassigned)",
    "efflux ratio at 2.5 h, 2 µM": 1.32
  },
  {
    "compound": "CCC(=O)NC1CCCc2c(-c3cc4ccc(=O)n(C)c4s3)cncc21 (single isomer, unassigned)",
    "efflux ratio at 2.5 h, 2 µM": 1.28
  }
]

// moving on: another record for efflux ratio at 2.5 h, 2 µM
Requested field: efflux ratio at 2.5 h, 2 µM. Item: CCC(=O)NC1CCOc2c(-c3ccc4c(ccc(=O)n4C)c3)cncc21 (single isomer, unassigned) 2.46
